biological target: LTBP-proTGFβ1 in the LN229 CAGA12 assay of Table 20 (endogenous or over-expressed murine LTBP1 not stated); experiment: cell-based or functional assay
The entries below come with measured log10(IC50 (CAGA12 luciferase)) values attached.
quantity: log10(IC50 (CAGA12 luciferase)) (log10 of the value in nM)

>>> val("SR-AB52-HuFab (Fab, V domains shown) VH: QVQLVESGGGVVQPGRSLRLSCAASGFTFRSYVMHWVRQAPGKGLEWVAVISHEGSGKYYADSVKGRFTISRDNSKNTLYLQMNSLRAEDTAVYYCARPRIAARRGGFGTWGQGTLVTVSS VL: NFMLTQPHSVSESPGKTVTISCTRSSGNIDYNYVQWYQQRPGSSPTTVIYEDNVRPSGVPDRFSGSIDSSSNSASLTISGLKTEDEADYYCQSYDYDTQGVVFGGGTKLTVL")
-0.34
>>> val("SR-AB46-HuFab (Fab, V domains shown) VH: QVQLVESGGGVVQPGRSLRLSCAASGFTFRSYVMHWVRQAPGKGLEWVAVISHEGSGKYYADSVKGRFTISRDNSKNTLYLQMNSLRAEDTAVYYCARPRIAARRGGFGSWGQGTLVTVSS VL: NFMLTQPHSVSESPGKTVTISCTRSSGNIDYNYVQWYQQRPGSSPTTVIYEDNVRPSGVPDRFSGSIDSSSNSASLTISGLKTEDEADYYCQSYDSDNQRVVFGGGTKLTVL")
-0.31
>>> val("SR-AB61-HuFab (Fab, V domains shown) VH: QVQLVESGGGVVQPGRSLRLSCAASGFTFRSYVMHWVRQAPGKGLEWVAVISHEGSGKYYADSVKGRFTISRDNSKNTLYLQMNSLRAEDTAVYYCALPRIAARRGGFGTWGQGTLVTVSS VL: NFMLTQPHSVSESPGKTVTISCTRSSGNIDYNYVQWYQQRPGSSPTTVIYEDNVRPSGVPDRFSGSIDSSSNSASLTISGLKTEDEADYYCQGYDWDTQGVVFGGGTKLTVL")
-0.33
>>> val("SR-AB41 Fab (Fab, V domains shown) VH: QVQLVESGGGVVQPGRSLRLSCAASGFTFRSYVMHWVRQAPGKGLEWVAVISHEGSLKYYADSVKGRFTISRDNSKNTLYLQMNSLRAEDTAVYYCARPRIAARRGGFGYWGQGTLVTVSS VL: NFMLTQPHSVSESPGKTVTISCTRSSGNIDNNYVQWYQQRPGSSPTTVIYEDNQRPSGVPDRFSGSIDSSSNSASLTISGLKTEDEADYYCQSYDYDNQAVVFGGGTKLTVL")
-0.31
>>> val("SR-AB54-HuFab (Fab, V domains shown) VH: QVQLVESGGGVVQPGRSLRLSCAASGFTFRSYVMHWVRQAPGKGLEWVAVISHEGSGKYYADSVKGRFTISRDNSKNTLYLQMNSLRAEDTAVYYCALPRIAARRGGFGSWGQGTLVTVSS VL: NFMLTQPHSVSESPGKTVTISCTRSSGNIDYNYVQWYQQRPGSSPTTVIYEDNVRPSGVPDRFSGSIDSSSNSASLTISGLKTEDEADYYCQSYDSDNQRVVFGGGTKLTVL")
0.77

These entries and their values trace back to patent US20220064276A1.
